Field: LD50. Provide a value for each of the molecules that follow.
- Assay Details: Preliminary acute toxicities in mice (Table H)
- Experimental Context: mouse, in vivo, sc, dihydrochloride, subcutaneous

# input Would you kindly share the measured LD50 for C/C=C\C=C\C(=O)NCC(O)CC(N)CC(=O)NCCC(=N)N (centres unmarked) ?
# output ~500 mg/kg

# input Entry C/C=C\C=C\C(=O)NC(C)C(O)CC(N)CC(=O)NCCC(=N)N (centres unmarked) has what LD50?
# output 400 to 800 mg/kg

---

Below are MIC values measured for Staphylococcus aureus FDA 209P.

# input Report MIC for C/C=C/C=C/C(=O)NCC(O)CC(N)CC(=O)NCCC(=N)N (stereo not shown) [III] please.
# output > 100 µg/mL

# input compound: C/C=C/C=C/C(=O)NC(C)C(O)CC(N)CC(=O)NCCC(=N)N (stereo not shown) [IV] ; wanted: its MIC
# output 50 µg/mL

# input Requested read-out: MIC. Entry: C/C=C\C=C\C(=O)NCC(O)CC(N)CC(=O)NCCC(=N)N (stereo not shown) [I]
# output 50 µg/mL

# input Would you kindly share the measured MIC for C/C=C\C=C\C(=O)NC(C)C(O)CC(N)CC(=O)NCCC(=N)N (stereo not shown) [II] ?
# output 12.5 µg/mL
